test.name: Cytotoxicity in mammalian cells (Cell Titer Glo)
Format: cell-based
test.parameters: African green monkey; Vero cells, Conc. 50 µM
Hi! Just check whether viability at 24 h, 50 µM is below 70%. Below gives true (1), equal or above gives false (0).

CCc1ccccc1-c1nc(CN[C@@H]2C[C@@H]3C[C@H]([C@H]2C)C3(C)C)c(C)o1 ... true (1)
C#CCN(Cc1nc(-c2ccccc2)oc1C)[C@@H]1C[C@@H]2C[C@H]([C@H]1C)C2(C)C ... false (0)
Cc1oc(C2CCCCC2)nc1C(=O)N[C@@H]1C[C@@H]2C[C@H]([C@H]1C)C2(C)C ... false (0)
C[C@@H]1[C@H]2C[C@@H](C[C@H]1NCc1nc3ccccc3n1C1CCCCCC1)C2(C)C ... true (1)

Could you now consider this next compound?
**Q:** Lab note: viability at 24 h, 50 µM threshold 70%. Does this compound come in strictly under it? `Cc1oc(-c2ccc3c(c2)OCO3)nc1CN[C@@H]1C[C@@H]2C[C@H]([C@H]1C)C2(C)C`
**A:** false (0)

* * *

Test system: S. mansoni newly transformed schistosomula (NTS)
test.name: Schistosomicidal activity ex vivo, NTS (Cell Titer Glo)
Assay type: cell-based
test.parameters: Schistosoma mansoni
Measured viability at 50 µM, listed per entry.
Supply the numeric figure in %, leaving out any unit text.

C#CCN(Cc1nc(-c2ccccc2)oc1C)[C@@H]1C[C@@H]2C[C@H]([C@H]1C)C2(C)C ... 26.4

**Q:** Lookup: viability at 50 µM / S. mansoni newly transformed schistosomula (NTS) / `C[C@@H]1[C@H]2C[C@@H](C[C@H]1NCc1nc3ccccc3n1C1CCCCCC1)C2(C)C`
**A:** 1.87

**Q:** And the next one, `Cc1oc(-c2ccc3c(c2)OCO3)nc1CN[C@@H]1C[C@@H]2C[C@H]([C@H]1C)C2(C)C` ?
**A:** 17.6

**Q:** Now consider `CCc1ccccc1-c1nc(CN[C@@H]2C[C@@H]3C[C@H]([C@H]2C)C3(C)C)c(C)o1` and answer again.
**A:** 0.0707

* * *

target.under.test: BmTrxR (Brugia malayi, UniProt A0A1I9G0T9)
Sequence (A0A1I9G0T9 entry or part of it, added parts left off): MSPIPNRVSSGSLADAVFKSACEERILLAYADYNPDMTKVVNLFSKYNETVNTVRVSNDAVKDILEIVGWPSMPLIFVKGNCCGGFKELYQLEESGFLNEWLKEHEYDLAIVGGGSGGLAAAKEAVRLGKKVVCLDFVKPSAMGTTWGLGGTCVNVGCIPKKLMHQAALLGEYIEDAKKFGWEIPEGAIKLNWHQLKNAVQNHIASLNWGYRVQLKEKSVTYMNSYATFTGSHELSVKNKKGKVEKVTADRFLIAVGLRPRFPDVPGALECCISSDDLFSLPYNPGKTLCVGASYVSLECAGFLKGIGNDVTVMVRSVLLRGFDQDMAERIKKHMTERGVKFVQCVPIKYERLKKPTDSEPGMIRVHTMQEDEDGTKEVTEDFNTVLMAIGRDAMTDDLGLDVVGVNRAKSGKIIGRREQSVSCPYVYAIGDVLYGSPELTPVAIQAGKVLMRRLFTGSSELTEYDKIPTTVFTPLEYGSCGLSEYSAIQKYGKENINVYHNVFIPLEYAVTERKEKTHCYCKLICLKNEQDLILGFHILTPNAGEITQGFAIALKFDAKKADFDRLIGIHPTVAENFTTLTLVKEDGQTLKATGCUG
test.name: B. malayi TrxR enzyme inhibition
Format: biochemical
test.parameters: BmTrxR, 25 µM compound, mean of 3 replicates; read-out: % inhibition
Description: Recombinant TGR, human TrxR1, B. malayi (Bm)TrxR and human GR proteins were expressed and purified as described[20],[69],[79]. […] The reaction was started with addition of an equal volume of DTNB (6 mM) and NADPH (100 µM) and the increase in A412 during the first 3 min was recorded. […] Activity was initiated with the addition of 1 mM GSSG and 100 μM NADPH and initial rates of NADPH oxidation were monitored at 340 nm. […] The IC50 was calculated in GraphPad Prism.
We begin with a simple list: items and their reported inhibition at 25 µM.
Express it in %; write the number only.

**Q:** // query inhibition at 25 µM value for entry `CCc1ccccc1-c1nc(CN[C@@H]2C[C@@H]3C[C@H]([C@H]2C)C3(C)C)c(C)o1`
**A:** 5.59

**Q:** Note, next up: `Cc1oc(-c2ccc3c(c2)OCO3)nc1CN[C@@H]1C[C@@H]2C[C@H]([C@H]1C)C2(C)C`
**A:** 40.6

**Q:** // same read-out, input: CC1C(NCc2cn(C3OCC(O)C(O)C3O)c3ccccc23)CC2CC1C2(C)C (stereo not shown)
**A:** 70.1

**Q:** Next up: `Cc1oc(-c2ccc3ccccc3c2)nc1CNC1CCCCCC1`
**A:** 3.27

**Q:** Follow-up entry: `C[C@@H]1[C@H]2C[C@@H](C[C@H]1NCc1nc3ccccc3n1C1CCCCCC1)C2(C)C`
**A:** 43.3

**Q:** Try this compound too: `Cc1oc(C2CCCCC2)nc1C(=O)N[C@@H]1C[C@@H]2C[C@H]([C@H]1C)C2(C)C`
**A:** -0.458

**Q:** For `Cc1oc(C2CCCCC2)nc1CN[C@@H]1C[C@@H]2C[C@H]([C@H]1C)C2(C)C` then?
**A:** 0.661

* * *

The reader will find reported inhibition at 10 µM values listed item by item below.
target.under.test: BmTrxR (Brugia malayi, UniProt A0A1I9G0T9)
test.name: B. malayi TrxR enzyme inhibition
Type: biochemical
test.parameters: BmTrxR, 10 µM compound, mean of 3 replicates; read-out: % inhibition
Answer in %, number only, no unit symbol.

Would you please look over these solved cases?
Cc1oc(C2CCCCC2)nc1CN[C@@H]1C[C@@H]2C[C@H]([C@H]1C)C2(C)C ... -0.192
Cc1oc(C2CCCCC2)nc1C(=O)N[C@@H]1C[C@@H]2C[C@H]([C@H]1C)C2(C)C ... -2.13
CC1C(NCc2cn(C3OCC(O)C(O)C3O)c3ccccc23)CC2CC1C2(C)C (stereo not shown) ... 47.6
Cc1oc(-c2ccc3c(c2)OCO3)nc1CN[C@@H]1C[C@@H]2C[C@H]([C@H]1C)C2(C)C ... 22.5
CCc1ccccc1-c1nc(CN[C@@H]2C[C@@H]3C[C@H]([C@H]2C)C3(C)C)c(C)o1 ... 0.63
Cc1oc(-c2ccc3ccccc3c2)nc1CNC1CCCCCC1 ... -0.384

**Q:** Return reported inhibition at 10 µM; argument: `C[C@@H]1[C@H]2C[C@@H](C[C@H]1NCc1nc3ccccc3n1C1CCCCCC1)C2(C)C`
**A:** 17.7

* * *

test.name: Cytotoxicity in mammalian cells (Cell Titer Glo)
Assay type: cell-based
test.parameters: African green monkey; Vero cells, Conc. 100 µM
reported.metric: viability at 24 h, 100 µM
Write the quantity with the unit trailing the number.

C#CCN(Cc1nc(-c2ccccc2)oc1C)[C@@H]1C[C@@H]2C[C@H]([C@H]1C)C2(C)C ... 63.9%

Turning now to a further record.
**Q:** What measured viability at 24 h, 100 µM goes with `C[C@@H]1[C@H]2C[C@@H](C[C@H]1NCc1nc3ccccc3n1C1CCCCCC1)C2(C)C` ?
**A:** 4.99%

* * *

System: S. mansoni adult worms
test.name: GSH/GSSG ratio in ex vivo adult worms
Format: cell-based
test.parameters: 3 hr; third data set (r147-159), 0hr 72.45
# label = class 1 if Ratio GSH/GSSG < 60 else class 0

Known results for compounds:
Cc1oc(-c2ccccc2)nc1CN[C@@H]1C[C@@H]2C[C@H]([C@H]1C)C2(C)C ... class 1
Cc1oc(-c2ccc3c(c2)OCO3)nc1CN[C@@H]1C[C@@H]2C[C@H]([C@H]1C)C2(C)C ... class 1
C#CCN(Cc1nc(-c2ccccc2)oc1C)[C@@H]1C[C@@H]2C[C@H]([C@H]1C)C2(C)C ... class 0
CC1C(NCc2cn(C3OCC(O)C(O)C3O)c3ccccc23)CC2CC1C2(C)C (centres unmarked) ... class 0

**Q:** Bench note: check whether `C[C@@H]1[C@H]2C[C@@H](C[C@H]1NCc1nc3ccccc3n1C1CCCCCC1)C2(C)C` shows Ratio GSH/GSSG below 60
**A:** class 1

* * *

System: S. mansoni adult worms
test.name: GSH/GSSG ratio in ex vivo adult worms
Format: cell-based
test.parameters: adult worms ex vivo, 1 hr, relative to 0hr
reported.metric: Reduction (%) in GSH/GSSG ratio
Kindly provide the numeric value in % only, without the unit symbol.

# annotated cases, reported Reduction (%) in GSH/GSSG ratio shown
C[C@@H]1[C@H]2C[C@@H](C[C@H]1NCc1nc3ccccc3n1C1CCCCCC1)C2(C)C ... 14.1592
C[C@@H]1[C@H]2C[C@@H](C[C@H]1NCc1cc(-c3ccccc3)[nH]n1)C2(C)C ... 1.477
C[C@@H]1[C@H]2C[C@@H](C[C@H]1NCc1nc3ccccc3n1C)C2(C)C ... 1.36
Cc1oc(C2CCCCC2)nc1C(=O)N[C@@H]1C[C@@H]2C[C@H]([C@H]1C)C2(C)C ... 13.6142

**Q:** Observed Reduction (%) in GSH/GSSG ratio on S. mansoni adult worms for `Cc1oc(-c2ccc3ccccc3c2)nc1CNC1CCCCCC1` , please.
**A:** 20.3307

* * *

target.under.test: Human GR (Homo sapiens)
Construct: made in house
Sequence (P00390 44-522): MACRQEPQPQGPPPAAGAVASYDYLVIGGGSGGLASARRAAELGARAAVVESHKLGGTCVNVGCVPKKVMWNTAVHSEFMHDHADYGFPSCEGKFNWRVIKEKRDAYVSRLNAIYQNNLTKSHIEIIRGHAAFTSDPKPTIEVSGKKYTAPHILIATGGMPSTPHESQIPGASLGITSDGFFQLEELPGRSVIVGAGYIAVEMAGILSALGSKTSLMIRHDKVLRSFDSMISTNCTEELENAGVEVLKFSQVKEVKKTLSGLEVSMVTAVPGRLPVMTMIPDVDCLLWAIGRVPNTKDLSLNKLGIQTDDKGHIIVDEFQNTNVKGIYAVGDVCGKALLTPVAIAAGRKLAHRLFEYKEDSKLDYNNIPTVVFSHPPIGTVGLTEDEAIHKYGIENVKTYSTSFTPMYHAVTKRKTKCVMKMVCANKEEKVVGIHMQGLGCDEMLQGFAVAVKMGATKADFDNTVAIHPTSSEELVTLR
test.name: Human GR enzyme inhibition (GSSG reduction, NADPH oxidation)
Format: biochemical
test.parameters: hGR, 6 hours pre-incubation, compound 66.7 µM; read-out: % inhibition
reported.metric: inhibition at 66.7 µM (%)
The reply should be a number in %, with the unit left off.

Examples from the recorded data:
C#CCN(Cc1nc(-c2ccccc2)oc1C)[C@@H]1C[C@@H]2C[C@H]([C@H]1C)C2(C)C [Compound 6] ... -0.21
Cc1oc(C2CCCCC2)nc1C(=O)N[C@@H]1C[C@@H]2C[C@H]([C@H]1C)C2(C)C [Compound 7] ... -0.656
CC1C(NCc2cn(C3OCC(O)C(O)C3O)c3ccccc23)CC2CC1C2(C)C (centres unmarked) [Compound 9] ... -3.11
CCc1ccccc1-c1nc(CN[C@@H]2C[C@@H]3C[C@H]([C@H]2C)C3(C)C)c(C)o1 [Compound 2] ... -3.29

// below: inhibition at 66.7 µM requested for another compound
**Q:** Please give the measured inhibition at 66.7 µM for this compound: C[C@@H]1[C@H]2C[C@@H](C[C@H]1NCc1nc3ccccc3n1C1CCCCCC1)C2(C)C [Compound 8]
**A:** 9.42
